All values here come from PubChem BioAssay AID1347075.

# assay_details: qHTS assay for MDR1-selective chemotherapeutics: Primary screen using the parental adenocarcinoma cell KB-3-1; also: nearly all actives have a fitted effect of over 60% in size
# assay_conditions: KB-3-1 viability, CellTiter-Glo ATP luminescence, 72 h; series mostly up to 46.1 µM
In all, about 400,000 compounds went through this assay and about 5,500 (1.4%) were called active. Not shown: some 9% with an inconclusive outcome. Calls follow the shape of the dose curve; as a rule, active = well fitted cell-killing curve with a large enough effect; inconclusive = small, poorly fitted or top-dose-only effect, or effect the other way; inactive = flat fitted curve, though single readings scatter. The sample holds actives, similar compounds and a random draw of the others, so the mix is not that of the screen.
Log the outcome using a class from True for active, False for inactive

The examples below pair each entry with its known result.
- O=C1C[C@H]2C=CCc3cccc(c32)CN1Cc1ccccc1: False
- Cc1cc(NC(=O)CSc2nc3c(cc2C#N)CCCCC3)no1: True
- O=C(NCc1ccccc1)C1CCN(S(=O)(=O)c2ccc3[nH]c(=O)ccc3c2)CC1: False

Hey, what did the test say about COc1ccc(OC)c(NC(=O)C2CCCN(S(=O)(=O)c3ccc4c(c3)CCCC(=O)N4)C2)c1 (stereo not given) ?
False

Dear colleague, could you share the recorded outcome for `COc1ccc(Nc2cc(=O)n(-c3ccccc3)c3c2c(=O)n(C)c(=O)n3C)cc1` when you have a moment?
False

Just curious, what result did `Cc1cccc(CSc2nc3ccncc3n2Cc2ccc(C(=O)O)cc2)c1` get here?
False

What did the test return for `COc1cc(NS(=O)(=O)c2cccs2)cc(OC)c1` ?
False

Please let me know the test result on file for `CCOC(=O)c1ccccc1NC(=O)CCc1c(C)nc2c(c1C)c(=O)n(C)c(=O)n2C` .
False

Fill in: this test's call for O=C(Nc1nnc(C2CC(=O)N(c3ccc(Cl)cc3)C2)s1)c1ccco1 (stereo not given) is ___
False

So what was the verdict on `Cc1cc(NC(=O)COc2ccccc2C#N)no1` in this test?
False

---

# assay_details: qHTS assay for MDR1-selective chemotherapeutics: Primary screen using the parental adenocarcinoma cell KB-3-1; also: nearly all actives have a fitted effect of over 60% in size
# assay_conditions: KB-3-1 viability, CellTiter-Glo ATP luminescence, 72 h; series mostly up to 46.1 µM
The whole screen tested about 400,000 compounds, of which about 5,500 (1.4%) were called active. Not shown: some 9% with an inconclusive outcome. Calls come from the whole dose curve; as a rule, active = well fitted cell-killing curve with a large enough effect; inconclusive = small, poorly fitted or top-dose-only effect, or effect the other way; inactive = flat fitted curve, though single readings scatter. What follows is part of a selection rich in actives, with near analogues and random picks from the rest.
Allowed answers: active, inactive

Record lookup: outcome of this test for `Cc1ccc(C(=O)C[n+]2cc(-c3ccccc3)n3c2CCCCC3)cc1` ?
active

Please share the test call associated with `Cn1c(-c2ccccc2)c[n+]2c1CCCCC2` .
inactive

Hi, sorry to bother you, what did the test record for `O=S(=O)(NC1CC1)c1ccc(Cl)cc1` ?
inactive

Short answer needed: outcome of this test for COc1cc(OC)c(N2CC(C(=O)Nc3cc(Cl)ccc3N3CCOCC3)CC2=O)cc1Cl (configuration not stated) ?
active

# fetch the recorded call for CCOC(=O)c1ccc(N2C(=O)c3[nH]nc(-c4ccccc4)c3C2c2ccc(C(C)C)cc2)cc1 (configuration not stated) here
active

Please state the recorded outcome for this compound: `CC(C)Cn1c(=O)c2ccccc2n2c(-c3cccc(Cl)c3)nnc12`
inactive

---

# assay_details: qHTS assay for MDR1-selective chemotherapeutics: Primary screen using the parental adenocarcinoma cell KB-3-1; also: nearly all actives have a fitted effect of over 60% in size; also: potency is read from the fitted curve at half-maximal effect
# assay_conditions: KB-3-1 viability, CellTiter-Glo ATP luminescence, 72 h; series mostly up to 46.1 µM
# Description: A prime difficulty in effectively treating cancer is the development of cellular resistance to multiple structurally unrelated anticancer drugs, a phenomenon known as multidrug resistance (MDR). […] Numerous strategies to overcome P-gp-mediated MDR have been explored, including the design of drugs that evade recognition and efflux, and development of inhibitors to block efflux and restore drug accumulation. […]
In all, about 400,000 compounds went through this assay and about 5,500 (1.4%) were called active. Roughly 9% stayed inconclusive and do not appear here. The sample as a whole holds a higher share of actives than the screen did.
quantity_kind: Potency

- CC(C)C1C(=O)N(Cc2cn(CCC3OCCO3)nn2)CCS(=O)(=O)N1Cc1ccc(-c2ccccc2C(F)(F)F)cc1 (centres undefined): inactive
- Cc1ccc(-c2ccc(CN3C(C(C)C)C(=O)N(Cc4cn(CCC5OCCO5)nn4)CCS3(=O)=O)cc2)cc1 (centres undefined): 18.4 µM (active)
- CCOC(=O)c1cccc(NC(=O)Cn2cnc3nc4c(cc3c2=O)CCCC4)c1: inactive
- Cc1ccc(-c2ccc(CN3C(C)C(=O)N(Cc4cn(CCC5OCCCO5)nn4)CCS3(=O)=O)cc2)cc1 (centres undefined): inactive

---

# assay_details: qHTS assay for MDR1-selective chemotherapeutics: Primary screen using the parental adenocarcinoma cell KB-3-1; also: nearly all actives have a fitted effect of over 60% in size
# assay_conditions: KB-3-1 viability, CellTiter-Glo ATP luminescence, 72 h; series mostly up to 46.1 µM
In all, about 400,000 compounds went through this assay and about 5,500 (1.4%) were called active. Not shown: some 9% with an inconclusive outcome. The call rests on the fitted dose curve; in most records, active means well fitted cell-killing curve with a large enough effect; inconclusive means small, poorly fitted or top-dose-only effect, or effect the other way; inactive means flat fitted curve, though single readings scatter. What follows is part of a selection rich in actives, with near analogues and random picks from the rest.
Allowed answers: active, inactive

- CCOC(=O)C1=CC[C@@H](c2ccccc2)N(S(=O)(=O)c2ccc(C)cc2)[C@H]1c1ccc(CC)cc1: inactive
- Cc1nc2ccccc2c(=O)n1-c1ccc(NS(=O)(=O)c2ccc(F)cc2F)cc1: inactive
- C/C(=N/NC(=O)CC(=O)N/N=C(\C)c1ccc([N+](=O)[O-])cc1)c1ccc([N+](=O)[O-])cc1: inactive
- Fc1ccc2[nH]c3c(N4CCN(Cc5ccc6c(c5)OCO6)CC4)ncnc3c2c1: active
- Cc1[nH]n(-c2cccc(Cl)c2)c(=O)c1/C=N/n1c(C)nc2ccccc2c1=O: active
- CCOC(=O)C1C(C)C(C(C)(C)C)N(S(=O)(=O)c2ccc(C)cc2)C1c1ccccc1 (stereo not given): active
- COc1cccc2cc(-c3nc(Cl)c4c5c(sc4n3)CC(C)CC5)c(=O)oc12 (stereo not given): inactive
- Cc1ccc(C(=O)Cn2cccn2)cc1: inactive
- N#C/C=C/N1CCN(Cc2ccc3c(c2)OCO3)CC1: inactive

Now for another entry.
What was the test verdict on `CC(C)(C)NC(=O)CSc1nc(-c2ccc(F)cc2)cc(C(F)(F)F)n1` ?
inactive

---

# assay_details: qHTS assay for MDR1-selective chemotherapeutics: Primary screen using the parental adenocarcinoma cell KB-3-1; also: nearly all actives have a fitted effect of over 60% in size
# assay_conditions: KB-3-1 viability, CellTiter-Glo ATP luminescence, 72 h; series mostly up to 46.1 µM
Hit rate of the full screen: of about 400,000 compounds, about 5,500 (1.4%) were called active. Another 9% or so got no clear call; they are omitted. Calls follow the shape of the dose curve; as a rule, active = well fitted cell-killing curve with a large enough effect; inconclusive = small, poorly fitted or top-dose-only effect, or effect the other way; inactive = flat fitted curve, though single readings scatter. The sample holds actives, similar compounds and a random draw of the others, so the mix is not that of the screen.
The categories you may choose from are true for active, false for inactive

- Cc1ccc2oc(C(=O)Nc3ccc(S(=O)(=O)N4CCCCCC4)cc3)cc(=O)c2c1: false
- C=CCNC(=O)c1ccc2nc(-c3ccco3)c(-c3ccco3)nc2c1: false

Lab log entry: `CC(=O)Nc1ccc(NC(=O)CSc2nnc3c4cc(Br)ccc4n(C)c3n2)cc1` — outcome as called in the assay?
false

Could you please tell me the result logged for `Cc1ccccc1NC(=S)N(CCCN1CCOCC1)Cc1cccs1` in this assay?
false

Could you check what this test reported for `CCCn1c(=N)c(C(=O)NCc2ccccc2)cc2c(=O)n3cccc(C)c3nc21` ?
false

Test call, this compound: `Cc1ccc(S(=O)(=O)N2CCN(c3nc(-n4cnc5ccccc54)nc4ccccc34)CC2)cc1`
false

Assay result, entry `CCN(CC)S(=O)(=O)c1ccc(N(C)CCc2ccc(OC)c(OC)c2)nc1` — outcome?
false

Outcome logged for `CCN(CC)S(=O)(=O)c1ccc(N(C)Cc2ccc(C(F)(F)F)cc2)nc1` in this assay:
true

Could you kindly confirm the outcome this assay logged for `CN(C)c1cccc2ccccc12` ?
false

Tell me the recorded outcome of this test for `COc1ccc(OC)c(S(=O)(=O)Nc2cccc(-c3ccc4nncn4n3)c2)c1` .
false

Returns: the outcome recorded for `CCc1ccc(-c2nn3c(C)nnc3s2)cc1NC(=O)c1ccc(-c2cccc(Cl)c2)o1` in this assay.
false

# outcome recorded in this test, key = `CN(C)S(=O)(=O)c1ccc(C(=O)N(Cc2cccnc2)c2nc3c(F)cc(F)cc3s2)cc1`
false

Any idea what this test logged for `CCC(=O)N1CCc2cc(CNC(=O)Nc3ccccc3Cl)ccc21` ?
false

Outcome logged for `CC(=O)N1CCCc2cc(S(=O)(=O)N3CCC(C(=O)NCc4ccc(C)cc4)CC3)ccc21` in this assay:
false

Just curious, what result did `CCc1ccc(CCC(=O)Nc2ccc(S(N)(=O)=O)cc2)o1` get here?
false

What classification did Cc1ccc(NC(=O)Nc2sc3nc4n(c(=O)c3c2C)CCC(C)CC4)c(Cl)c1 (configuration not stated) end up with in this test?
false

Could you kindly confirm the outcome this assay logged for `CCOc1ccccc1NC(=O)CN1CCCN(Cc2cccc(Cl)c2)S1(=O)=O` ?
false

Hi, do you know how `COc1ccc(Cc2nc3ccc(C(=O)NCc4ccccc4Cl)cc3o2)cc1` came out in this test?
false
